A collection of compounds and their measured TGI
- System: SNB-19 CNS
- ASSAY: NCI tumour cell line growth inhibition, 48 h

COMPOUND | TGI
O=[N+]([O-])/C(C(Cl)=C(Cl)Cl)=C(\Nc1cccc2cccnc12)SCc1ccccc1 | 42 µM
CS(=O)(=O)OCCn1c(=O)n(CCOS(C)(=O)=O)c(=O)n(CCOS(C)(=O)=O)c1=O | > 100 µM
O=C(c1ccc2ccccc2c1)c1c(C(F)(F)F)n([O-])c2ccc(Cl)cc2[n+]1=O | 3.07 µM
O=c1cc(N=P(c2ccccc2)(c2ccccc2)c2ccccc2)n(-c2ccccc2)c(=O)n1-c1ccccc1 | 63.5 µM
Cc1ccc2nc3c(Cl)c(C)c(=O)cc-3sc2c1 | > 100 µM

Please look at the following compound next.
Reported TGI for SNB-19 CNS, given `N#C/C(=C\c1cc(Br)c(O)c(Br)c1)c1cccnc1` ? > 100 µM

* * *

- Test system: BT-549 breast
- ASSAY: NCI tumour cell line growth inhibition, 48 h; in the data active = GI50 below about 0.43 µM; inactive = the rest
Answer with one of the outcomes given here: 1 for active, -1 for inactive

Take a look at these entries with their results.
COMPOUND | LABEL
CCCCCCCCCCCCCCCCCCNC(=O)[C@H]1CSC(c2cccs2)N1 (stereo not given in full) | -1
Cn1c([N+](=O)[O-])cnc1/C=C1\Oc2cc(Cl)ccc2C1=O | -1
O=C(/C=C/c1ccccc1)CC(c1ccccc1)N1CCOCC1 (stereo not given) | -1
O=C(O)CCC(NC(=S)S)C(=O)O.[Na+].[Zn+2] (stereo not given) | -1
COc1ccc(/C=C2/CCc3cc4ccc(OC)cc4[o+]c32)c(O)c1 | -1
C=C(CN1CCc2ccccc2C1)c1ccc(C(=O)Nc2ccccc2N)cc1 | -1

Outcome logged for `COCCOCCOCc1n(Cc2ccc3ccccc3n2)c2ccccc2[n+]1Cc1ccc2ccccc2c1` in this assay: 1

Outcome logged for `Cc1ncc(C(=O)Nc2ccc(CN3CCN(C)CC3)c(C(F)(F)F)c2)cc1C#Cc1cnc(NC2CC2)c2ncccc12` in this assay: -1

Outcome logged for `Cn1cc(-c2csc(-c3cn(C)c4ccccc34)n2)c2cnccc21` in this assay: -1

Outcome logged for `CCSc1nc(N)c2cn[nH]c2n1` in this assay: -1

* * *

A collection of compounds and their measured TGI
- Test system: NCI-H522 lung
- ASSAY: NCI tumour cell line growth inhibition, 48 h

Past entries and their recorded results:
COMPOUND | TGI
Oc1ccccc1/C=N/c1nc2cc3sc(/N=C/c4ccccc4O)nc3cc2s1 | > 100 µM
Cl[Si]1(Cl)Oc2ccccc2O[Si](Cl)(Cl)Oc2ccccc2O1 | 5.4 µM
COc1ccccc1-c1cc(=O)c2ccc(C)nc2[nH]1 | > 100 µM

Using the record for `c1ccc2sc(SCSc3nc4ccccc4s3)nc2c1` , report its TGI. > 100 µM

Using the record for `N#CC(C#N)=CNC(=S)c1ccncc1` , report its TGI. > 100 µM

Using the record for CCOC1Oc2ccccc2-c2oc(=O)c(Sc3ccc(C)cc3)cc21 (configuration not stated) , report its TGI. 82.9 µM

Using the record for COC(=O)/C(C#N)=C1\CCC(C(=O)OC)N1C (configuration not stated) , report its TGI. > 100 µM

Using the record for `COc1cc2cnc3c4ccccc4ccc3c2cc1OC` , report its TGI. > 100 µM

Using the record for `COc1ccc2cc3c4cc5c(cc4cc[n+]3cc2c1OC)OCO5` , report its TGI. 21.5 µM

* * *

A collection of molecules and their measured TGI
- Test system: HCT-15 colon
- ASSAY: NCI tumour cell line growth inhibition, 48 h

STRUCTURE_AS_SMILES | TGI
Cc1ccc2c(c1)Sc1ccc(N=NN(C)C)cc1N2C | > 100 µM
CN(C)c1ccc(C=C2N=C(c3ccccc3)N(c3cc(C(=O)c4ccccc4)ccc3N3C(=O)/C(=C/c4ccc(N(C)C)cc4)N=C3c3ccccc3)C2=O)cc1 | > 100 µM
CN(C)Cc1cc(C(=O)/C=C/c2ccc(O)cc2)cc(CN(C)C)c1O | > 100 µM
COc1ccc2cc(-c3ccc(-c4ccc(C(=N)N)s4)s3)ccc2c1 | 3.7 µM

Using the record for `NC(=O)c1cccc(Nc2nccc(Nc3cccc(F)c3)n2)c1` , report its TGI. > 25 µM

* * *

- System: TK-10 renal
- ASSAY: NCI tumour cell line growth inhibition, 48 h
MEASURED_PROPERTY: TGI

COMPOUND | TGI
CCSc1nc(N)c2cn[nH]c2n1 | 34.3 µM
Cc1csc(-c2cn(C)c3c2C(=O)C(N)=CC3=O)n1 | > 100 µM
O=C1C[C@H](Sc2ccccc2)C2(OCCO2)[C@@H](Sc2ccccc2)C1 | 6.96 µM
N#CCCN(CCC#N)c1ccc(/C=C2\N=C(c3ccccc3)N(c3ccc(Cl)cc3)C2=O)cc1 | > 100 µM
CC(C)(C)NC(=O)/C(=C\Sc1ccccc1)c1ccc2c(c1)OCO2 | > 100 µM
O=C(NCCN1CCOCC1)c1ccc2cc(C(=O)N3CC(CCl)c4ccc([N+](=O)[O-])cc43)[nH]c2c1 (stereo not given) | 36.6 µM

Using the record for `CSc1c(C)c(C)nn1-c1ccccc1` , report its TGI. > 100 µM

Using the record for O=C(O)CCC(NC(=S)S)C(=O)O.[Na+].[Zn+2] (stereo not given) , report its TGI. > 50 µM

Using the record for O=C1/C(=C\c2cccc(Oc3ccccc3)c2)S(=O)(=O)C(c2ccccc2)N1Cc1ccccc1 (stereo not given) , report its TGI. > 100 µM

Using the record for `CN(C)c1ccc(C=C2N=C(c3ccccc3)N(c3cc(C(=O)c4ccccc4)ccc3N3C(=O)/C(=C/c4ccc(N(C)C)cc4)N=C3c3ccccc3)C2=O)cc1` , report its TGI. > 100 µM

Using the record for `C=CCOC(=O)CC[N+]1=CCC(c2ccccc2)(c2ccccc2)O1` , report its TGI. > 100 µM

Using the record for CCOc1cc(C2CC(c3ccc(NS(=O)(=O)c4cc([N+](=O)[O-])ccc4C)cc3)=NN2C(=O)c2ccccc2)ccc1O (stereo not given) , report its TGI. 54.2 µM

* * *

A collection of molecules and their measured GI50
- Test system: SF-268 CNS
- ASSAY: NCI tumour cell line growth inhibition, 48 h

Past entries and their recorded results:
MOLECULE | MEASURED
O=S1(=O)NCCCN1CCNc1nccc(-c2c(-c3cccc(O)c3)nc3sccn23)n1 | 24.4 µM
Cn1c2ccccc2c2c(=O)c3ccccc3[nH]c21 | 25 µM
CCC(=C(c1ccc(OCCCN(C)C)cc1)c1ccc(OCCCN(C)C)cc1)c1ccc(Cl)cc1 | 1.04 µM

Using the record for O=C(O)CCC(NC(=S)S)C(=O)O.[Na+].[Zn+2] (stereo not given) , report its GI50. > 50 µM

Using the record for C=C1CC2(OC1=O)C(=O)N(CCCN1C(=O)C3(CC(=C)C(=O)O3)c3ccccc31)c1ccccc12 (stereo not given) , report its GI50. 3.32 µM

* * *

- Test system: KM20L2 colon
- ASSAY: NCI tumour cell line growth inhibition, 48 h
A collection of compounds and their measured TGI

Past entries and their recorded results:
COMPOUND | MEASURED_PROPERTY | MEASURED
CCN(CC)CC(=O)N1CCc2c([nH]c3ccccc23)C1c1cccnc1 (stereo unspecified) | TGI | > 100 µM
BrC/C=C/C[P+](c1ccccc1)(c1ccccc1)c1ccccc1 | TGI | > 100 µM
CC(C)c1ccccc1NC(=O)/C(Cl)=C1/Sc2ccccc2NC1=O | TGI | 59.7 µM
CSc1c(C)c(C)nn1-c1ccccc1 | TGI | > 100 µM
Cl[Si]1(Cl)Oc2ccccc2O[Si](Cl)(Cl)Oc2ccccc2O1 | TGI | > 100 µM

Please look at the following compound next.
Using the record for `C=CCNC(=S)/N=C/c1c(O)c2ccccc2oc1=O` , report its TGI. > 100 µM

* * *

- Tested on: DU-145 prostate
- ASSAY: NCI tumour cell line growth inhibition, 48 h
MEASURED_PROPERTY: TGI

Past entries and their recorded results:
COMPOUND | TGI
CC(C)COP(=O)(OCC(C)C)C(NS(=O)(=O)c1ccccc1)(C(F)(F)F)C(F)(F)F | 29.8 µM
c1ccc(Cn2cnc3ccc(-c4nc(-c5ccc6c(c5)ncn6C5CCCCC5)cn5ccnc45)cc32)cc1 | 21 µM
CS(=O)(=O)OCCn1c(=O)n(CCOS(C)(=O)=O)c(=O)n(CCOS(C)(=O)=O)c1=O | > 100 µM
Cn1cc(-c2csc(-c3cn(C)c4ccccc34)n2)c2cnccc21 | 4.41 µM
CC1(C)N=C(N)N=C(N)N1c1ccc(OCC(=O)Nc2ccccc2)c(Cl)c1 | > 100 µM

Using the record for `O=S(=O)(CCOCc1ccc(-c2ccc3ncnc(Nc4ccc(OCc5cccc(F)c5)c(Cl)c4)c3c2)o1)c1ccccc1` , report its TGI. > 25 µM

Using the record for `Clc1ccc(-c2nn3c(-c4ccncc4)nnc3s2)cc1` , report its TGI. > 100 µM

Using the record for `Cc1cc2[nH]c3[nH]c(=O)[nH]c(=O)c3c2cc1C` , report its TGI. > 100 µM
